Each recorded value in this set is attributed to the supplement of paper PMC10567573.

# protein stability index values compiled below
B1: TRIM9 (parent)
chain: PRNSCITCPQCHRSLILDDRGLRG

- Variants of: B1
- Assay Info: protein stability index of a GFP-peptide fusion (GPS, HEK-293T) (PSI 1-6); higher = more stable;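 note: lentivirally expressed fusions sorted by FACS into six bins by GFP to DsRed ratio, PSI derived from sequencing read proportions per bin multiplied by bin number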
- Condition Parameters: c terminus: a fixed tail appended
Simply state the number, no unit and no words.

>>> df
    var  quantitative_readout
0   T7A                  2.42
1   I6D                  2.15
2  L17G                  2.08
3  I16C                  2.32
4   C8N                   2.6

Request: Look at this variant and give its reported protein stability index. N3H
Result: 2.53

Request: Look at this variant and give its reported protein stability index. S14Q
Result: 2
